# key: entry, value: protein stability index
B1: KCNK9 (parent)
chain: DVPDLQSVCSCTCYRSQDYGGRSV

# Variants of: B1
# ASSAY_PROTOCOL: protein stability index of a GFP-peptide fusion (GPS, HEK-293T) (PSI 1-6); higher = more stable;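 note: lentivirally expressed fusions sorted by FACS into six bins by GFP to DsRed ratio, PSI derived from sequencing read proportions per bin multiplied by bin number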
# CONDITION_NOTES: c terminus: a fixed tail appended

S16T | 2.18

Please look at this variant and report its protein stability index: `C11Y` 3.6

Supply recorded protein stability index for `Q17P` here. 1.27

Look up and report measured protein stability index for this entry: `Y14C` 1.75

Answer with the recorded protein stability index for the variant listed here: `Y14P` 2.71
